Recorded values, source the supplement of paper PMC11908140.

B1: library; numbered along this chain (parent)
chain: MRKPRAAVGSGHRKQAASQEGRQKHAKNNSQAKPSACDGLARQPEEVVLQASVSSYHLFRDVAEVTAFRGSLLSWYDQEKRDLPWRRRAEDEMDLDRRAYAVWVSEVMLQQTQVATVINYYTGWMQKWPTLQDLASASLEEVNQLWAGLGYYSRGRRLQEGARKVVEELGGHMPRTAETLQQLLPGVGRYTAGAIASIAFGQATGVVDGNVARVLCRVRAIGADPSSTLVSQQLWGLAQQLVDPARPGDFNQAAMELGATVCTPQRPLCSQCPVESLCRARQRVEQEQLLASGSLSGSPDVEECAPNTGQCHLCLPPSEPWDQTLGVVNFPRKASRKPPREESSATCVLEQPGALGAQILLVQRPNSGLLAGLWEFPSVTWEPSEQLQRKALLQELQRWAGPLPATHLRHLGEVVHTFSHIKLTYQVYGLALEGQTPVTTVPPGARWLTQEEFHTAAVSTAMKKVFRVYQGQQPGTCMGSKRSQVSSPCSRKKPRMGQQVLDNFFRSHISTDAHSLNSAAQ

variants of: B1; assay: 8OG:A repair function score (normalized; synonymous = 0, nonsense = -1) (normalized log-likelihood score); higher = more repair activity (WT-like); details: with 8OG:A DNA repair reporter (GFP) in HEK-293 MUTYH KO cells;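 also: cells sorted at 72 h after reporter transfection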
Experimental endpoint: 8OG:A repair function score
When you answer, write just the number.

Asked: State the recorded 8OG:A repair function score for this entry: D82N
Given back: 0.00375

Asked: Please do the same for T179G as well.
Given back: 0.108

Asked: Please do the same for S276Y as well.
Given back: 0.0309

Asked: Please do the same for R88G as well.
Given back: -0.107

Asked: Please do the same for L349D as well.
Given back: -0.966

Asked: Please do the same for Y76D as well.
Given back: -1.25

Asked: Please do the same for V107N as well.
Given back: -0.735
